target: Sodium-dependent noradrenaline transporter (Homo sapiens)
Sequence (P23975 whole entry): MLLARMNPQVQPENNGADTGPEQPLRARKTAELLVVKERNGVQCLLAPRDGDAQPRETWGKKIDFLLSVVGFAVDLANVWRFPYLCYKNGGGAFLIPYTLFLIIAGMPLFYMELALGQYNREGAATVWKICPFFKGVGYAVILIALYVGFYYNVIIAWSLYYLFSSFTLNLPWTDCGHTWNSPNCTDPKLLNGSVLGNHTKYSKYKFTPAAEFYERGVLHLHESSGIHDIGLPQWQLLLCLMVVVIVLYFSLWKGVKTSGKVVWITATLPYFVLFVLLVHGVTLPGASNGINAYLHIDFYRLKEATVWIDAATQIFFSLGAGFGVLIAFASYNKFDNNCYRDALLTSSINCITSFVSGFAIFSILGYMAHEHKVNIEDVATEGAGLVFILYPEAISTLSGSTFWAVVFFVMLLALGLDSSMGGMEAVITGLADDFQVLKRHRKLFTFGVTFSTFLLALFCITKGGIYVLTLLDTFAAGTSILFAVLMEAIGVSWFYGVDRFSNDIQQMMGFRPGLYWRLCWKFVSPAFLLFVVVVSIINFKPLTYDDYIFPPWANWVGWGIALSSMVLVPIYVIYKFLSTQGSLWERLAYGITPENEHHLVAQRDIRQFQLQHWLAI
assay_overview: Displacement of [3H]nisoxetine from human NET expressed in COS7 cells
Format: cell-based
test_conditions: COS-7
Activity calls are given as the source filed them. No cut-off for these calls is given here. Where a SMILES comes first, the peptide text is derived from it. Bridges are numbered along the chain shown (N, C = ends). [ ]: non-standard residue; d: D form. Pro(3S-OH) = O=C(O)[C@H]1NCC[C@@H]1O; pGlu = O=C1CC[C@@H](C(=O)O)N1
Reply using exactly one outcome from 1 (active), -1 (inactive)

In: Lab log entry: `CC(C)C[C@@H]1NC(=O)[C@H](CCCCN)NC(=O)[C@H](CC2CCCCC2)NC(=O)CNC(=O)[C@@H]2CSSC[C@H](NC1=O)C(=O)N[C@@H](Cc1cnc[nH]1)C(=O)N1CC[C@H](O)[C@H]1C(=O)N[C@H](C(=O)O)CSSC[C@H](NC(=O)[C@@H](NC(=O)CNC(=O)[C@@H]1CCC(=O)N1)C(C)C)C(=O)N2` — outcome as called in the assay?
Out: -1

In: Lab log entry: `CC(C)C[C@@H]1NC(=O)[C@H](CCCCN)NC(=O)[C@H](Cc2ccc(O)cc2)NC(=O)CNC(=O)[C@@H]2CSSC[C@H](NC1=O)C(=O)N[C@@H](Cc1ccco1)C(=O)N1CC[C@H](O)[C@H]1C(=O)N[C@H](C(=O)O)CSSC[C@H](NC(=O)[C@@H](NC(=O)CNC(=O)[C@@H]1CCC(=O)N1)C(C)C)C(=O)N2` — outcome as called in the assay?
Out: 1

In: Lab log entry: `CC(C)C[C@@H]1NC(=O)[C@H](CCCCN)NC(=O)[C@H](Cc2cccs2)NC(=O)CNC(=O)[C@@H]2CSSC[C@H](NC1=O)C(=O)N[C@@H](Cc1cnc[nH]1)C(=O)N1CC[C@H](O)[C@H]1C(=O)N[C@H](C(=O)O)CSSC[C@H](NC(=O)[C@@H](NC(=O)CNC(=O)[C@@H]1CCC(=O)N1)C(C)C)C(=O)N2` — outcome as called in the assay?
Out: -1

In: Lab log entry: CC(C)C[C@@H]1NC(=O)[C@H](CCCCN)NC(=O)[C@H](CCCCN)NC(=O)CNC(=O)[C@@H]2CSSC[C@H](NC1=O)C(=O)N[C@@H](Cc1cnc[nH]1)C(=O)N1CC[C@H](O)[C@H]1C(=O)N[C@H](C(=O)O)CSSC[C@H](NC(=O)[C@@H](NC(=O)CNC(=O)[C@@H]1CCC(=O)N1)C(C)C)C(=O)N2 ([pGlu]GVCCGKKLCH[Pro(3S-OH)]C-OH; disulfide 4-13, 5-10) — outcome as called in the assay?
Out: -1

In: Lab log entry: `CC(C)C[C@@H]1NC(=O)[C@H](CCCCN)NC(=O)[C@H](C(c2ccccc2)c2ccccc2)NC(=O)CNC(=O)[C@@H]2CSSC[C@H](NC1=O)C(=O)N[C@@H](Cc1cnc[nH]1)C(=O)N1CC[C@H](O)[C@H]1C(=O)N[C@H](C(=O)O)CSSC[C@H](NC(=O)[C@@H](NC(=O)CNC(=O)[C@@H]1CCC(=O)N1)C(C)C)C(=O)N2` — outcome as called in the assay?
Out: -1

In: Lab log entry: `COc1ccc(C[C@@H]2NC(=O)CNC(=O)[C@@H]3CSSC[C@H](NC(=O)[C@H](CC(C)C)NC(=O)[C@H](CCCCN)NC2=O)C(=O)N[C@@H](Cc2cnc[nH]2)C(=O)N2CC[C@H](O)[C@H]2C(=O)N[C@H](C(=O)O)CSSC[C@H](NC(=O)[C@@H](NC(=O)CNC(=O)[C@@H]2CCC(=O)N2)C(C)C)C(=O)N3)cc1` — outcome as called in the assay?
Out: 1
